Target: Vasopressin V2 receptor (Rattus norvegicus, UniProt Q00788)
Sequence (Q00788 whole entry): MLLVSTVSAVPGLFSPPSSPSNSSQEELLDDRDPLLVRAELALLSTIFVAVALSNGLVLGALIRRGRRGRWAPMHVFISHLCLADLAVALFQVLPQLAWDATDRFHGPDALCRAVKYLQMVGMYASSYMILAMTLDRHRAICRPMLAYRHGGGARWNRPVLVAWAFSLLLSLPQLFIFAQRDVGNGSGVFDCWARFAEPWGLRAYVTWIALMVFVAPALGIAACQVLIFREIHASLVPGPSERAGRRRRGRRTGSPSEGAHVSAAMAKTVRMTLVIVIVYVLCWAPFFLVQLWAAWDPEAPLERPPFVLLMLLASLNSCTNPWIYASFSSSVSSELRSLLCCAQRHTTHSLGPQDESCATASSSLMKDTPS
Assay: Displacement of [3H]-AVP from its AVP-V2 receptor binding site in rat kidney
// returns condition not met unless IC50 is strictly below 500 nM, in which case condition met

Please let me know if CN(C)C1CCCN(C(=O)c2ccc(NC(=O)c3ccccc3N)cc2)c2ccccc21 (stereo unspecified) shows IC50 below 500 nM.
condition met

Please let me know if `O=C(Cc1ccccc1)Nc1ccc(C(=O)N2CCCc3ccccc32)cc1` shows IC50 below 500 nM.
condition not met

Please let me know if CCOC(=O)CN(C)C1CCCN(C(=O)c2ccc(NC(=O)c3ccccc3C)cc2)c2ccccc21 (stereo unspecified) shows IC50 below 500 nM.
condition met

Please let me know if `Cc1ccc(C(=O)Nc2ccc(C(=O)N3CCCc4ccccc43)cc2)cc1` shows IC50 below 500 nM.
condition not met

Please let me know if `O=C(Nc1ccc(C(=O)N2CCCc3ccccc32)cc1)c1ccc(Cl)cc1Cl` shows IC50 below 500 nM.
condition met

Please let me know if CN(C)C1CCCN(C(=O)c2ccc(NC(=O)c3ccccc3Cl)cc2)c2ccccc21 (stereo unspecified) shows IC50 below 500 nM.
condition met

Please let me know if `O=C(Nc1ccc(C(=O)N2CCCc3ccccc32)cc1)c1ccccc1Cl` shows IC50 below 500 nM.
condition met

Please let me know if CCCN(C)C1CCCN(C(=O)c2ccc(NC(=O)c3ccccc3C)cc2)c2ccccc21 (stereo unspecified) shows IC50 below 500 nM.
condition met

Please let me know if `O=C(Nc1ccc(C(=O)N2CCCc3ccccc32)cc1)c1ccccc1[N+](=O)[O-]` shows IC50 below 500 nM.
condition not met

Please let me know if `O=C(Nc1ccc(C(=O)N2CCCc3ccccc32)cc1)c1cccnc1` shows IC50 below 500 nM.
condition not met

Please let me know if Cc1ccccc1C(=O)N(C)c1ccc(C(=O)N2CCCC(N(C)C)c3ccccc32)cc1 (stereo unspecified) shows IC50 below 500 nM.
condition not met

Please let me know if `CC(=O)Nc1ccc(C(=O)N2CCCc3ccccc32)cc1` shows IC50 below 500 nM.
condition not met

Please let me know if CNC(=O)NC1CCCN(C(=O)c2ccc(NC(=O)c3ccccc3C)cc2)c2ccccc21 (stereo unspecified) shows IC50 below 500 nM.
condition met

Please let me know if `CCCCOc1ccc(C(=O)Nc2ccc(C(=O)N3CCCc4ccccc43)cc2)cc1` shows IC50 below 500 nM.
condition not met

Please let me know if `COc1ccc(C(=O)Nc2ccc(C(=O)N3CCCc4ccccc43)cc2)cc1` shows IC50 below 500 nM.
condition not met

Please let me know if `O=C(Nc1ccc(C(=O)N2CCCc3ccccc32)cc1)c1cc(Cl)cc(Cl)c1` shows IC50 below 500 nM.
condition met

Please let me know if `O=C(CCc1ccccc1)Nc1ccc(C(=O)N2CCCc3ccccc32)cc1` shows IC50 below 500 nM.
condition not met

Please let me know if `CCOc1ccc(C(=O)Nc2ccc(C(=O)N3CCCc4ccccc43)cc2)cc1` shows IC50 below 500 nM.
condition not met

Please let me know if `O=C(Nc1cccc(C(=O)N2CCCc3ccccc32)c1)c1ccccc1` shows IC50 below 500 nM.
condition not met

Please let me know if `O=C(Nc1ccc(C(=O)N2CCCc3ccccc32)cc1)c1ccc([N+](=O)[O-])cc1` shows IC50 below 500 nM.
condition not met

Please let me know if Cc1ccc(C(=O)Nc2ccc(C(=O)N3CCCC(N(C)C)c4ccccc43)cc2)cc1 (stereo unspecified) shows IC50 below 500 nM.
condition met
